Tested on: NCI/ADR-RES ovarian
assay details: NCI tumour cell line growth inhibition, 48 h
measurement name: TGI

INSERT INTO measurements (molecule, observed_measurement) VALUES
  ('O=c1oc2ccccc2cc1-c1ccc([N+](=O)[O-])cc1', '> 100 µM');

Prompt: Provide measured TGI value, entry: COc1ccc2c(c1OC)C(Br)CCC(Br)(Br)C2=O (centres undefined)
Completion: 40.2 µM

Prompt: Provide measured TGI value, entry: `CCOC(=O)c1nc2cc(F)c(F)cc2nc1NCc1cc(OC)c(OC)c(OC)c1`
Completion: > 100 µM

====

Test system: SK-MEL-5 melanoma
assay details: NCI tumour cell line growth inhibition, 48 h
measurement name: GI50

Prompt: Provide measured GI50 value, entry: `N.N.NCCCCN.O=C([O-])CC(=O)[O-].O=C([O-])CC(=O)[O-].[Pt+4].[Pt+4]`
Completion: > 100 µM

Prompt: Provide measured GI50 value, entry: CC(C)(C)[Si](C)(C)OC1[C@@H](O[Si](C)(C)C(C)(C)C)[C@@H](CNC(=O)NC(=O)NC(=O)CI)O[C@H]1n1cnc2c(NC(=O)Nc3ccccc3)ncnc21 (stereo not given in full)
Completion: 8.73 µM

Prompt: Provide measured GI50 value, entry: `COc1ccc(/C=C(\C#N)n2nnc3cc(Cl)ccc32)cc1`
Completion: 2.36 µM

Prompt: Provide measured GI50 value, entry: `COc1ccc(/C=C/C(=O)/C=C(/C=C/c2ccc(OC)c(OC)c2)OB(F)F)cc1OC`
Completion: 1.49 µM

Prompt: Provide measured GI50 value, entry: `COC(=O)c1ccc(-c2nc3cc(F)c(F)cc3nc2C#N)cc1`
Completion: 6.87 µM

====

Listing of entries alongside the reported TGI.
Test system: SK-MEL-2 melanoma
assay details: NCI tumour cell line growth inhibition, 48 h
Where a SMILES comes first, the peptide text is derived from it. The star is where a group is joined. Boc = CC(C)(C)OC(=O)*

INSERT INTO assay_data (compound, measurement_name, observed_measurement) VALUES
  ('O=C1C(c2ccc(Cl)cc2)=[N+]([O-])c2ccccc21', 'TGI', '77.3 µM');

Prompt: Provide measured TGI value, entry: CCOC(=O)C12C3CCC1C2C(=O)C3 (stereo not drawn)
Completion: > 100 µM

Prompt: Provide measured TGI value, entry: O=C1C2c3[nH]c4ccccc4c3C3CCSCC3C2C(=O)N1c1ccccc1 (stereo not drawn)
Completion: > 100 µM

Prompt: Provide measured TGI value, entry: `CCOC(=O)c1csc(NC(=O)CN2CCCCC2)n1`
Completion: > 100 µM

Prompt: Provide measured TGI value, entry: O=C(O)C1CCCN1Cc1c[nH]c2ccccc12 (stereo not drawn)
Completion: > 100 µM

Prompt: Provide measured TGI value, entry: Nc1ccc2c(c1)N(C(=O)CCCC(=O)N1CC(CCl)c3ccc(N)cc31)CC2CCl (stereo not drawn)
Completion: 1.43 µM

Prompt: Provide measured TGI value, entry: CCCCC1=C(C(=O)N2CCOCC2)C2(OCCO2)C1Cl (stereo not drawn)
Completion: 51.6 µM

Prompt: Provide measured TGI value, entry: COC(=O)C(Cc1c[nH]c2ccccc12)NC(=O)C(Cc1c[nH]c2ccccc12)NC(=O)C(Cc1c[nH]c2ccccc12)NC(=O)C(Cc1c[nH]c2ccccc12)NC(=O)C(Cc1c[nH]c2ccccc12)NC(=O)OC(C)(C)C (stereo not drawn) (Boc-WWWWW-OMe; configuration not given here)
Completion: > 100 µM

Prompt: Provide measured TGI value, entry: CCC(C)C1=C(O)[N+]2([O-])Oc3ccc(-c4c(O)c(O)c(-c5ccc(O)cc5)c(OC(C)=O)c4OC(C)=O)cc3OC2(C(C)CC)C(=O)N1O (stereo not drawn)
Completion: > 50 µM
